Reference source: ChEMBL document CHEMBL1201862

- Tested on: M19-MEL
- test method notes: NCI tumour cell line growth inhibition, 48 h
Calls of active or inactive are those of the source. No stated cut-off is given here; in the data, active = GI50 up to about 1.1 µM and inactive = higher.
Your answer must be one of the following: Yes = active, No = inactive

# count of solved cases: 4
[[record]]
compound = "CC(=O)OC1CC2C(C)(C)C(=O)C=C[C@]2(C)C2CCC3(C)C(c4ccoc4)C(=O)C4OC43[C@]12C (stereo not given in full)"
class_name = "No"

[[record]]
compound = "Cc1nc(N)sc1C(=O)/C=C/c1ccc(/C=C/C(=O)c2sc(NC(=O)CCCCCCCCC(=O)Nc3nc(C)c(C(=O)/C=C/c4ccc(/C=C/C(=O)c5sc(N)nc5C)cc4)s3)nc2C)cc1"
class_name = "No"

[[record]]
compound = "C=C1CC(OC)(C(OC)C(=O)N[C@H]2OCO[C@H]3C2O[C@H](C[C@@H](COC)OC)C(C)(C)C3OC)O[C@H](C)[C@@H]1C (stereo not given in full)"
class_name = "Yes"

[[record]]
compound = "O=C(Cc1nc2ccccc2c(=O)n1-c1ccccc1Cl)c1ccncc1"
class_name = "No"


Hi, do you know how `COc1cc(C2(C)SCCCS2)c(I)c(OC)c1OC` came out in this test? No

---

- Test system: SN12C
- test method notes: NCI tumour cell line growth inhibition, 48 h
Activity calls are given as the source filed them. Cut-off read from the data, not from the text of the source: active = GI50 up to about 1.1 µM and inactive = higher.
Task for the reader: assign each of the following compounds its reported GI50.

[[record]]
compound = "O=C(Cc1nc2ccccc2c(=O)n1-c1ccccc1Cl)c1ccncc1"
observed_measurement = "> 100 µM (inactive)"


Hi, could you look up GI50 for each item in my list?
1. NC(=S)NNC(=S)NC(=O)c1ccco1
2. C=C1CC(OC)(C(OC)C(=O)N[C@H]2OCO[C@H]3C2O[C@H](C[C@@H](COC)OC)C(C)(C)C3OC)O[C@H](C)[C@@H]1C (stereo partly drawn)
3. CCOC(=O)c1ccc(NCC#CCN2CCCCC2)cc1

> 10 µM (inactive)
0.746 µM (active)
> 100 µM (inactive)

Hi, could you look up GI50 for each item in my list?
1. O=CC1OC(=O)c2cc(O)c(O)c(O)c2-c2c(cc(O)c(O)c2O)C(=O)OC1C1OC(=O)c2cc(O)c(O)c(O)c2-c2c(O)c(O)c3oc(=O)c4c(c(O)c(O)c5oc(=O)c2c3c54)-c2c(cc(O)c(O)c2O)C(=O)OCC1O (stereo not drawn)
2. NNC(=O)CCC(NS(=O)(=O)c1ccc(Cl)cc1)C(=O)NN (stereo not drawn)

1: 16.6 µM (inactive); 2: > 100 µM (inactive)

Hi, could you look up GI50 for each item in my list?
1. CC(C)(C)OC(=O)NNCC(O)COc1ccccc1 (stereo not drawn)
2. O=C1O[C@H]2[C@H](O)[C@@H](OC(=O)c3cc(O)c(O)c4c3[C@@H]3C1=CC(=O)C(O)(O)C3(O)O4)[C@H](OC(=O)c1cc(O)c(O)c(O)c1)O[C@@H]2CO (stereo partly drawn)
3. O=C1C(NCCc2cc(Br)c(O)c(Br)c2)=CC(=O)c2ncccc21
4. Nc1ccc(Oc2ccc(C3(c4ccc(Oc5ccc(N)c(O)c5)cc4)C4CC5CC(C4)CC3C5)cc2)cc1O
5. c1ccc2c(c1)c1c(n2CCOCCCN2CCCCC2)CCCC1
6. CCOC(=O)CCC(NC(=O)c1ccc(OCc2nc3ccccc3n3cccc23)cc1)C(=O)OCC (stereo not drawn)
7. CC(C)N(C)C(=O)C12C3C4C1C1C2C3C41C#N (stereo not drawn)

1. > 100 µM (inactive)
2. > 100 µM (inactive)
3. 3.8 µM (inactive)
4. 1.9 µM (inactive)
5. 13.6 µM (inactive)
6. > 100 µM (inactive)
7. > 100 µM (inactive)
